Source listed as ChEMBL document CHEMBL1143648.

molecular target: Metabotropic glutamate receptor 5 (Rattus norvegicus); test: In vitro functional activity measured by changes in cytosolic [Ca2+] concentrations against rat metabotropic glutamate receptor 5
Sequence (P31424 whole entry): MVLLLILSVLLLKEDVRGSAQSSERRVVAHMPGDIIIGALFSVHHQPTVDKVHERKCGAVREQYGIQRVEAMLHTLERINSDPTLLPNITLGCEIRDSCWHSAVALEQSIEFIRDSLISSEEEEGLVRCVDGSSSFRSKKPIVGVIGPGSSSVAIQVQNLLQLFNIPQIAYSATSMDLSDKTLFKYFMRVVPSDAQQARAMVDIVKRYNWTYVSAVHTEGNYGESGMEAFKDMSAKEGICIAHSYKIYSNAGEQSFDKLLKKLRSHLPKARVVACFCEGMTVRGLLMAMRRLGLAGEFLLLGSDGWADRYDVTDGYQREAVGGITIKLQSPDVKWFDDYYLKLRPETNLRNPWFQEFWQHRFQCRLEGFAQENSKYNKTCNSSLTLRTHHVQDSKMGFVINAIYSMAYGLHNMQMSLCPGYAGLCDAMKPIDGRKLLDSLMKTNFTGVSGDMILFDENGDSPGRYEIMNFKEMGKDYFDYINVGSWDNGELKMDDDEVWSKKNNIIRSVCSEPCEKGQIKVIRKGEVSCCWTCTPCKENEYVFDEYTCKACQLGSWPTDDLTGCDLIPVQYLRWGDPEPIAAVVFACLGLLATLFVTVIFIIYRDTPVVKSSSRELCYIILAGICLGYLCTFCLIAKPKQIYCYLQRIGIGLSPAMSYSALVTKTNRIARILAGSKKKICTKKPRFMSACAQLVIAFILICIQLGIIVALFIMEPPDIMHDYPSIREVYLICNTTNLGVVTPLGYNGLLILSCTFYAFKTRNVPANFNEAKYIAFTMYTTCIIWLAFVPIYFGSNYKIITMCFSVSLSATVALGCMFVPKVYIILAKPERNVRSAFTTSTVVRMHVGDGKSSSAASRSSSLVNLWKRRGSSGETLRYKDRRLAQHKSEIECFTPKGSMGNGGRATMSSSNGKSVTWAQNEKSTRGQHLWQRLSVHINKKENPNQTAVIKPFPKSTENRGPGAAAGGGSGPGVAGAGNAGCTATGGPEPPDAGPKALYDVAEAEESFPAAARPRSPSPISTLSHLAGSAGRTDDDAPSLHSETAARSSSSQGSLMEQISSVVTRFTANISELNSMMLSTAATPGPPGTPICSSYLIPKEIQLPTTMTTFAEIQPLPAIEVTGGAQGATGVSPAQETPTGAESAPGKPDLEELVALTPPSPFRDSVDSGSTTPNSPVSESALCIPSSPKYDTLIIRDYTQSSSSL
The entries below are paired with their reported IC50.
Respond with the bare value in nM.

| structure_smiles | readout_number |
| --- | --- |
| N#Cc1cc(-n2nnc(-c3ccccn3)n2)cc([N+](=O)[O-])c1 | 42 |

// switching to the query compound
Query: Record request: IC50 value, item N#Cc1cc(F)cc(-n2nnc(-c3ncc[nH]3)n2)c1
Result: 47
